molecular target: Paired box protein Pax-8 (Homo sapiens, UniProt Q06710); experiment: PAX8 transcriptional activity inhibition in RMG-I – RMG-I cells, luciferase, cherry-pick, dose response (AID 687027); assay type: functional, cell-based;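 note: luciferase reporter driven by Pax8 target thyroperoxidase promoter measured by SteadyGlo luminescence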
Sequence (Q06710 whole entry): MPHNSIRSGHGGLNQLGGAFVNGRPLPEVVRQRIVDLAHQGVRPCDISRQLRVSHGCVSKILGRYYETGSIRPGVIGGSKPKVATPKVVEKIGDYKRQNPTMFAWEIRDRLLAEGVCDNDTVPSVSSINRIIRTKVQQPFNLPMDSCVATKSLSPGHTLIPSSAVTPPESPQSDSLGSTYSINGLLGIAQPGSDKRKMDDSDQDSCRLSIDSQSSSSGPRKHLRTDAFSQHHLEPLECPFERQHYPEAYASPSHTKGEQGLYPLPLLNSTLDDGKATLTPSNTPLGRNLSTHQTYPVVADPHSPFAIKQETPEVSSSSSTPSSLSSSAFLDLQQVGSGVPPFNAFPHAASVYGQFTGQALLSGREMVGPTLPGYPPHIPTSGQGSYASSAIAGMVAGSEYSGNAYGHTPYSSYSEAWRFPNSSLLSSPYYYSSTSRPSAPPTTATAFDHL
Calls of active or inactive are those of the source. The rule behind the calls is not given here.
Catalogue of AC50 values

# compound, AC50
records = [
    ("C[C@@H]1CN([C@H](C)CO)C(=O)CCCn2nncc2CO[C@H]1CN(C)Cc1ccc(Oc2ccccc2)cc1", "22.1 µM (active)"),
    ("Cc1c(C(=O)c2cccc3ccccc23)c2cccc3c2n1[C@H](CN1CCOCC1)CO3", "8.77 µM (active)"),
    ("O=C(COC(=O)/C(=C/c1cccs1)c1cccs1)NC(c1ccccc1)c1ccccc1", "8.36 µM (active)"),
    ("COc1ccc(-c2ccc([C@@H]3[C@@H](CO)N4CCCCN(C(=O)Cc5ccccc5)C[C@H]34)cc2)cc1", "41.5 µM (active)"),
    ("C[C@@H]1CCCCO[C@@H](CN(C)Cc2ccc(C(F)(F)F)cc2)[C@H](C)CN([C@@H](C)CO)C(=O)c2cc(NS(=O)(=O)c3ccc(Cl)cc3)ccc2O1", "9.89 µM (active)"),
    ("Cc1ccc(S(=O)(=O)N(C)C[C@H]2Oc3ccc(NC(=O)Nc4ccc(C(F)(F)F)cc4)cc3CC(=O)N([C@H](C)CO)C[C@@H]2C)cc1", "7.34 µM (active)"),
    ("C=C1CC(Cn2cc(Br)c(=O)[nH]c2=O)(c2ccc(-c3ccccc3)cc2)OC1=O (stereo not drawn)", "6.49 µM (active)"),
    ("COc1ccc(S(=O)(=O)N2CCCCN3[C@H](CO)[C@H](c4ccc(C#CC(C)C)cc4)[C@H]3C2)cc1", "10.4 µM (active)"),
    ("C[C@H]1CN([C@@H](C)CO)S(=O)(=O)c2ccc(C#Cc3ccccc3F)cc2O[C@@H]1CN(C)CC1CCOCC1", "10.4 µM (active)"),
    ("C[C@@H]1CCCCO[C@H](CN(C)Cc2ccc(C(F)(F)F)cc2)[C@H](C)CN([C@@H](C)CO)C(=O)c2cc(NS(=O)(=O)c3ccc(F)cc3)ccc2O1", "5.17 µM (active)"),
    ("C[C@@H]1CCCCO[C@@H](CN(C)C(=O)Nc2ccc(C(F)(F)F)cc2)[C@H](C)CN([C@H](C)CO)C(=O)c2cc(NS(=O)(=O)c3ccc(F)cc3)ccc2O1", "5.62 µM (active)"),
    ("O=C1C=CC(=C(c2ccc(O)cc2)c2ccc(O)cc2)C=C1 [AURIN]", "8.81 µM (active)"),
    ("C=C(C)c1nc(Oc2ccccc2)nc(Oc2ccccc2)n1", "3.04 µM (active)"),
    ("O=C1CN(S(=O)(=O)Cc2ccccc2)C[C@@H]2[C@H](c3ccc(C#Cc4ccc(F)cc4)cc3)[C@H](CO)N12", "9.68 µM (active)"),
    ("C[C@@H]1CN([C@@H](C)CO)C(=O)Cc2cc(NC(=O)Nc3ccc(F)cc3)ccc2O[C@H]1CN(C)CC1CCCCC1", "20.4 µM (active)"),
    ("CCC(=O)N1CCN(c2ccc(NC(=O)c3ccc([N+](=O)[O-])o3)cc2)CC1", "5.31 µM (active)"),
    ("O=C(N/N=C/c1c[nH]c2ccccc12)c1[nH]c2ccc(Br)cc2c1-c1ccccc1", "3.5 µM (active)"),
    ("N#Cc1c(N)n(C2OC(CO)C(O)C2O)c2ncnc(N)c12 (stereo not drawn)", "< 0.26 µM (active)"),
]

Where these numbers come from: ChEMBL document CHEMBL1201862
